Assay: NRK52E cytotoxicity
Format: cell-based
Conditions: rat, NRK52E renal tubular epithelial cells
measuredQuantity: viability at 24 h, 40 μM (%)
Answers are plain numbers, in %.

Lookup result for COc1cccc2c1cc([N+](=O)[O-])c1c(C(=O)O)cc3c(c12)OCO3 ; measured viability at 24 h, 40 μM: 60
